In this section we review reported T/C values for a set of compounds.
- System: L1210 leukemia ip in BDF1 mice, survival T/C
- assay-info: NCI In Vivo Anticancer Drug Screen. Data for tumor model L1210 Leukemia (intraperitoneal) in B6D2F1 (BDF1) mice
- setup-conditions: endpoint: mean survival time; dose: 50.0 mg/kg/injection; schedule: Q01DX009 (ip); vehicle: saline with Tween-80; higher = longer survival
Toxic doses and inconclusive results are not listed.

# compound, T/C
data = [
    ("CCCCCCC(O)C[N+](=O)[O-] (stereo unspecified)", "93 % of control"),
    ("O=C1CS/C(=N/N=C/c2ccccc2)N1", "104 % of control"),
    ("O=C1CC(=O)N(c2ccccc2)C(=O)N1", "99 % of control"),
    ("C1=CCOCOC1", "97 % of control"),
    ("C[As](C)[Se]CC1OC(O)C(O)C(O)C1O (stereo unspecified)", "104 % of control"),
    ("Clc1nc(Cl)c(Cl)nc1Cl", "100 % of control"),
    ("O=C1NC(=O)C2C3C=CC(C12)C1C2C(=O)NC(=O)C2C31 (stereo unspecified)", "111 % of control"),
    ("c1cc[c]([Ge]([O][Ge]([c]2ccccc2)([c]2ccccc2)[c]2ccccc2)([c]2ccccc2)[c]2ccccc2)cc1", "94 % of control"),
    ("C/C(=N\\O)c1ccc(OCC(O)CN2CCN(c3ccccc3)CC2)cc1 (stereo unspecified)", "103 % of control"),
    ("O=C1c2ccccc2C(=O)N1CNc1ccc2c(c1)OCO2", "108 % of control"),
    ("ClCCCCOCBr", "97 % of control"),
    ("CCOC(=O)C(CC)c1nc2ccccc2o1 (stereo unspecified)", "109 % of control"),
    ("CC12CCCCC1=CC(OC(=O)c1ccc([N+](=O)[O-])cc1)CC2 (stereo unspecified)", "94 % of control"),
    ("Cc1cccc(-c2nc(N)nc(N)n2)c1C", "97 % of control"),
    ("BrCC(Br)CBr", "94 % of control"),
    ("C=C=CC(C=O)(CC)CCCC (stereo unspecified)", "91 % of control"),
]

====

In this section we review reported T/C values for a set of compounds.
- Test system: L1210 leukemia ip in BDF1 mice, survival T/C
- assay-info: NCI In Vivo Anticancer Drug Screen. Data for tumor model L1210 Leukemia (intraperitoneal) in B6D2F1 (BDF1) mice
- setup-conditions: endpoint: mean survival time; dose: 50.0 mg/kg/injection; schedule: Q04DX002 (ip); vehicle: Klucel (hydroxypropylcellulose) (HPC); higher = longer survival
Inconclusive results and toxic doses are left out.

# smiles-representation, T/C
data = [
    ("CS(=O)(=O)Nc1ccccc1-c1nc2ccccc2c(=O)o1", "98 % of control"),
    ("O/N=C(/C(=N/O)c1ccccc1)c1ccccc1.O/N=C(/C(=N/O)c1ccccc1)c1ccccc1.[Pd]", "106 % of control"),
    ("Cc1nc2ccccc2[nH]1", "105 % of control"),
]

====

- System: L1210 leukemia ip in BDF1 mice, survival T/C
- assay-info: NCI In Vivo Anticancer Drug Screen. Data for tumor model L1210 Leukemia (intraperitoneal) in B6D2F1 (BDF1) mice
- setup-conditions: endpoint: mean survival time; dose: 400.0 mg/kg/injection; schedule: Q04DX003 (ip); vehicle: saline with Tween-80; higher = longer survival
Toxic doses and inconclusive results are not listed.
In this section we review reported T/C values for a set of compounds.
result-type: T/C

# compound, reported-result
measured = [
    ("C1=C(c2ccccc2)CCCCC1", "98 % of control"),
    ("CCOC(=O)NC1CCC2c3ccccc3C([N+](=O)[O-])(C1)c1ccccc12 (centres undefined)", "90 % of control"),
    ("O=[N+]([O-])c1ccc(/C=C\\c2ccc(Cl)cc2S(=O)(=O)F)c(Cl)c1", "100 % of control"),
    ("Cc1ccc(N=C(C(=Nc2ccc(C)cc2)c2ccccc2)c2ccccc2)cc1", "88 % of control"),
    ("O=C(CCCl)Nc1cccc2c1C(=O)c1c(c(O)c3ccccc3c1O)C2=O", "91 % of control"),
    ("COc1cc(NC(=O)CC(C)=O)c(OC)cc1Cl", "102 % of control"),
    ("CCOC(=O)N/N=C(/C)c1ccc(C)cc1", "110 % of control"),
    ("Cc1nc2c(NC(=O)C(F)(F)F)nn(C)c2nc1C", "106 % of control"),
    ("CC1OC(c2ccccc2)OC2COC(c3ccccc3)OC12 (centres undefined)", "96 % of control"),
]
